Test: HUVEC growth inhibition – cell-based, human, primary screen (AID 575);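 note: 100% = median of untreated cell wells with 0.1% DMSO on each plate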
Settings: HUVEC proliferation, CellTiter-Glo luminescence, 72 h; at 10 µM; hits give low values
Calls of active or inactive are those of the source.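 Rule for the calls: active = viability at or below 30% in both replicate assays; inconclusive = viability at or below 30% in just one of the two assays; inactive = the rest.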
Recorded viability values for a group of molecules are listed next.

Given item O=C(Nc1cccnc1)c1ccc2c(c1)OCO2 , the value recorded as its viability is 99.6% (inactive)

molecule Cc1cc(C(=O)CSc2nnc(-c3ccco3)o2)c(C)n1CC1COc2ccccc2O1 (configuration not stated) , viability observed: 74.3% (inactive)

For this molecule ( CCC(=O)N1CCc2cc(Br)cc(S(=O)(=O)N3CCCCCC3)c21 ), measured viability is 97.2% (inactive)

Entry under test: CC(C)CCn1c(N)c(S(=O)(=O)c2cccs2)c2nc3ccccc3nc21 . Its viability was 49.8% (inactive)

Value of measured viability for the entry Cc1ccsc1C(C(=O)NC1CCCCC1)N(C(=O)Cc1cccs1)C1CC1 (configuration not stated) : 89.2% (inactive)
